Target: Progesterone receptor (Homo sapiens) (UniProt P06401)
Sequence (P06401 whole entry): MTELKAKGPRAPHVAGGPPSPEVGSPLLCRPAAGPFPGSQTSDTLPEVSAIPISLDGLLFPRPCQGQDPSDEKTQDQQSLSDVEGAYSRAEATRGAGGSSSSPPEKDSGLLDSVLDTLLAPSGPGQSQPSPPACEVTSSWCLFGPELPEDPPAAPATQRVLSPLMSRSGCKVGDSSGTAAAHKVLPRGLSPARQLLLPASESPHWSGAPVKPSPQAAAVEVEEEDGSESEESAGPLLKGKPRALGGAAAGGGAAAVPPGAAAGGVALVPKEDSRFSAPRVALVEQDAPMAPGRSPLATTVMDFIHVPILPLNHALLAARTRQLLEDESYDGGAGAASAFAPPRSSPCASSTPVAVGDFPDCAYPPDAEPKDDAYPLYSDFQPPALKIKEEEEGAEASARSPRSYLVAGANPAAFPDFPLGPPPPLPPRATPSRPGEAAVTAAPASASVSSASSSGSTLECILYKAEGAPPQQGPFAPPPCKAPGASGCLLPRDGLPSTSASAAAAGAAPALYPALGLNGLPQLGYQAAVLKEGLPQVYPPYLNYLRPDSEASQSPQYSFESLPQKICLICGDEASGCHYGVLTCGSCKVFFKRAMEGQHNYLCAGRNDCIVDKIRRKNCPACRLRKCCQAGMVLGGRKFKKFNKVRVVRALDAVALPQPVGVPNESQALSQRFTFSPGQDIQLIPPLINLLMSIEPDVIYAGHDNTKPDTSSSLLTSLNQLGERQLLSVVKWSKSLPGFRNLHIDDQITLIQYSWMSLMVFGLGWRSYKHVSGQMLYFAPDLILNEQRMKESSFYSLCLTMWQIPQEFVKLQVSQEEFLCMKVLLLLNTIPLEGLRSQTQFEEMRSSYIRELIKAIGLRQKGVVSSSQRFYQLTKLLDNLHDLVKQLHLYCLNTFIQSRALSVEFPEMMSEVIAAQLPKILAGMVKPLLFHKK
Experiment: Relative Binding affinity(RBA) to human progesterone receptor(PR) compared to PF1092A; (RBA= IC50 of PF1092A/ IC50 of test compound at human PR)
Consider the following compounds and their measured relative binding affinity (RBA) readings.
Write the value as a bare number.

Inquiry: Please indicate relative binding affinity (RBA) recorded for CC(=O)O[C@H]1CC=C2C=C3OC(=O)C(C)=C3C[C@]2(C)[C@H]1C
Reply text: 0.8

Inquiry: Fill in relative binding affinity (RBA) for record CC(=O)O[C@H]1[C@H](C)C=C2C=C3OC(=O)C(C)=C3C[C@]2(C)[C@H]1C
Reply text: 1.6

Inquiry: Please supply the value of reported relative binding affinity (RBA) for the item CC(=O)O[C@H]1CC=C2C=C3OC(=O)C=C3C[C@]2(C)[C@H]1C
Reply text: 1.2

Inquiry: Please give measured relative binding affinity (RBA) of the following entry: CCC1=C2C[C@@]3(C)C(=CC[C@H](OC(C)=O)[C@@H]3C)C=C2OC1=O
Reply text: 0.2

From: ChEMBL document CHEMBL1131773
